# experiment: folding stability dG unfold from trypsin proteolysis; higher = more stable
So I've got a bunch of sequences here, and I need their folding stability dG unfold values.
Answers are plain numbers, in kcal/mol.

INSERT INTO measurements (sequence_code, measurement_name, measured_result) VALUES
  ('SAGGSAVPAEAKKKVFLKPVKVNIPLPGNYEIVEIDPKTGKIVIKVPGSSKTLVVDLKSGKVYEFGSAGGSA [r15_452_TrMRF]', 'folding stability dG unfold', 1.19),
  ('SAGGSAGGSAGGGTAEELAKELEDLGYKVKLEPEGDYLLLTVTDPDNDKPYVILLDPETISAGGSAGGSAGG [r7_0_TrMRF]', 'folding stability dG unfold', 1.25),
  ('MPNLKPALLVIPMKVESIEEAEEKVLAFAEELAEAFPNIKKIEVEILEIDEENGIVIAKITVEAEDSALDAS [r1_52_TrMRF]', 'folding stability dG unfold', 2.12);

We now examine a further sequence.
The sequence identified as SDWHYIQIPFEITFKAPPEQARQFVEDLAENLGITDINVDNIEYDPNNGEVKVKVSISIMIPPPPPPEDDSA [r9_918_TrROS] registered its folding stability dG unfold at 2.36

###

So I've got a bunch of sequences here, and I need their folding stability dG unfold values.
# experiment: folding stability dG unfold from chymotrypsin proteolysis; higher = more stable
Answers are plain numbers, in kcal/mol.

INSERT INTO measurements (sequence_code, measured_result) VALUES
  ('SSMTLVTVEMEITLRTPEGGSETLKRTFEREVSPDDPAAVEAAVEAAKEEIREAHPDVVEVRVVKVDTALSA [r9_436_JUSTAS]', 4.46);

Need folding stability dG unfold for each of these sequences.
1. SASPELRKLAEEAAERLVKELGVEKLEFTFTAPVLRPVYTYDPGGNKTPRLEEEIVTYSVTAVVPPEAASAG [r14_232_TrMRF]
2. SAGGSAATTVAVNGKEITIVSVDPATGKVTIAVPENVPESVIQAAKDLLEAQGLPVEVKRVPPEKLSAGGSA [r15_570_JUSTAS]
3. SAGGSAGGSAGLTFTLPDGTKITIETLEDGSVKIKIETLTPDGKPLEAEFVIPGSHPDEDSAGGSAGGSAGG [r17_471_TrMRF]
4. SAGGSAGGSAGFHIDVEVHRDDEGYVKVRVKMYMYNPDPGEPMGSFEMTIWIPPEDADKLSAGGSAGGSAGG [r11_575_TrROS]
5. SAGGSAMVTVTRYPDGTYVVEATGRGDSRTFTLDLPLEEIKEVLEKEGIKIDKIEVKPAPVDPAKVSAGGSA [r15_576_JUSTAS]

Ans.
1: -0.21; 2: 1.3; 3: 3.76; 4: 3.9; 5: 1.5

The sequence identified as SAGGSAGGSAGGKPVIYRIEVRLPDSPEREIFEIEVPPDRPEVAEELAKLLGPNVKMEPLSAGGSAGGSAGG [r11_250_TrMRF] registered its folding stability dG unfold at -0.577

###

# experiment: folding stability dG unfold (combined trypsin and chymotrypsin); higher = more stable
Tag: Met if measured folding stability dG unfold is not below 2 kcal/mol, Not met if it is.

Past entries and their recorded results:
INSERT INTO measurements (sequence_code, label_value) VALUES
  ('SAGSSLTTTSTTTFPGTVRVTTKTPDGKTFTLTVSVSTVPTPDGRVVPSVTTTMDPAARSSNVSPEVDRSAG [r5_462_JUSTAS]', 'Not met'),
  ('SVDPAKEKVVLRFTVTFPVPPELGPITADELAALVREILEAFGYEIVSVTVTVEGDRVTVTVEAVFDKRGSA [r9_1134_TrMRF]', 'Met'),
  ('SAGGSAGGSAGGMTPEEKIEALIKATPPLTVKTSGPGVSYEVEDLEKLKKLNVTISSVLGSAGGSAGGSAGG [r7_504_JUSTAS]', 'Not met'),
  ('SAGGSAMPKFYLDENGNPVYELPEEPTINTPLKIGIFDEENNPAIEIEIPGSTPLEEIIQKIKDAASAGGSA [r15_309_TrMRF]', 'Not met'),
  ('SAGPAVAVAPIPALEARPDLKDALVRVVVSPLPDGRVAVDVRPVFVPKPVITPEEARELEELAEKLAASAGG [r19_313_TrMRF]', 'Not met'),
  ('SAGGSAGGSAKRTIFIPAEDLQKNPDNAEELAQTIAEEFNDNGKEIKIEQHPDGGVVIELKSAGGSAGGSAG [r3_75_TrROS]', 'Not met');

Qu. # bool: folding stability dG unfold of SAGGSAGGSAGMEYHLVVVRPPNGEELVLLTDDDPELARRAARELFPGAEVRVEPVVLPESAGGSAGGSAGG [r11_850_TrMRF] >= 2 kcal/mol
Ans. Not met

Qu. # bool: folding stability dG unfold of SENPVLKNRPLPVVGTTERTSVAKPGESLDVKELPSNGIVATTPDGSTVGITVTVDANGNVLSLEIKPDPSA [r9_1195_JUSTAS] >= 2 kcal/mol
Ans. Not met

Qu. # bool: folding stability dG unfold of SAGGSAGGSAKITIPASQITHVDLETGELLVDHPSGRPIIFRVDPDRPDLILVEDPSGLSLGSAGGSAGGSA [r18_418_TrMRF] >= 2 kcal/mol
Ans. Not met

###

So I've got a bunch of sequences here, and I need their folding stability dG unfold values.
# experiment: folding stability dG unfold from trypsin proteolysis; higher = more stable
Give bare numbers, in kcal/mol.

INSERT INTO assay_data (sequence_code, quantity_unit, measured_result) VALUES
  ('SMMKIRIVNKETKEEIEEIEIEKNEDGSYTIKIKIKKNGKTYEIEIKLPKGMKIEELLKKLGIEKAEIEPSA [r9_492_TrROS_Hall]', 'kcal/mol', 1.55);

Need folding stability dG unfold for each of these sequences.
1. SAGDWMMVEMTVDFPPDQITEEEIKQALQEHFGEVEIDWNPGDGRIPITVYMPPGDMNKIQDALKEAGLSAG [r5_378_TrROS]
2. SAGGMTLTVDEIKELLKKGYSLEEIKEALKKAGFEIVEIKKIEKKDGKIYIEIEFKKNKKIIKIEIPSAGGS [r8_179_TrROS_Hall]
3. SYSIDTSKIEEAAAALPPNAVAELELTANVPESGFTLKLKVTITVDPAGKVTRITFTDPATGKKIATVDVGS [r1_165_JUSTAS]

Ans.
1: 0.755; 2: 3.38; 3: 2.47

###

# experiment: folding stability dG unfold (combined trypsin and chymotrypsin); higher = more stable
So I've got a bunch of sequences here, and I need their folding stability dG unfold values.
Answers are plain numbers, in kcal/mol.

Need folding stability dG unfold for each of these sequences.
1. SAGGSVEVEPLPNGLLRVTTVFSESKTPILRKLTYKDENGKPLGTKLELLPEEVEVESVTELLPPELLSAGG [r13_848_JUSTAS]
2. SAMIVVTLTINPITGKPILIFDPGVGVYAIDPETGEPHEATVDGDTLTLNFGNRPILLTPEAVIPPEELSAG [r14_208_TrMRF]
3. SAGGSAGGSAGGSMKNVPVTVEGSSSVVPLPDGSPVTVTELTTTTLGENGEVSTSTTVVSSAGGSAGGSAGG [r11_817_JUSTAS]
4. SAGGSTVKTITLEFTRDPSTGAITEAEAEIERLKNDPNWEVTDPTITPLPDGTVKVPAKVKIPSNANLSAGG [r13_428_JUSTAS]
5. SAGGSAGGSMVEITFPPDLSEEEAEALAKELEEKYNKKVKITKVPPEIPVPLPQYDPTNWVEVSAGGSAGGS [r12_159_JUSTAS]

Ans.
0.256
1.21
0.905
0.075
-0.108

###

So I've got a bunch of sequences here, and I need their folding stability dG unfold values.
# experiment: folding stability dG unfold (combined trypsin and chymotrypsin); higher = more stable
Answers are plain numbers, in kcal/mol.

INSERT INTO results (sequence_code, measured_result) VALUES
  ('SAGGSAGGSAGGKKPITLTVLVTDPDGYLLQRTTTLTLDEDTNELTATTTVTRIPLEDLSAGGSAGGSAGGS [r10_1225_TrROS_Hall]', 1.6);

Need folding stability dG unfold for each of these sequences.
1. SAGGSAGGSAMTIKVEVTVKVKVKLENGETKEKEVKVTVEIELPPLTKEELEKNKELLKKLLSAGGSAGGSA [r18_114_TrROS_Hall]
2. SAGGDTVTTTETFPEKPILTVTTTSFSPSGTTTTTTTTYEVENGKIVSKLSTTTTTTAVAPAPPGTASAGGS [r16_682_JUSTAS]
3. SAGGSAGGSAGHIPIIFQFEFEHYDPDDGKPKEHRWVIVIEFDGNGIKNIRIIPKEDAKKLLSAGGSAGGSA [r18_406_TrROS]

Ans.
1: 2.42; 2: 0.941; 3: 2.25
